For each entry below, report its hCD71:HSA value.
- tgt: T1, recombinant biotinylated human CD71 extracellular domain (human, UniProt P02786 89-760, biotinylated)
- T1 construct: extracellular domain; also called hCD71; huCD71 ECD
- protocol.notes: solution ELISA, signal ratio to HSA
Give bare numbers.

Hi team, please reply with hCD71:HSA for each item in this list.
1. SEQ ID NO 191 (designed binder, FN3 domain) MLPAPKNLVVSRVTEDSARLSWTAPDAAFDSFFIGYLEPQPPGEAIILAVPGSERSYDLTGLKPGTEYNVTIQGVKGGFPSLPLVASFTT
2. SEQ ID NO 140 (designed binder, FN3 domain) MLPAPKNLVVSRVTEDSARLSWTAPDAAFDSFFIGYLEPQPPGEAIQLEVPGSERSYDLTGLKPGTEYNVTIQGVKGGFPSMPLSAIFTT

Solution:
[119, 27.9]
